src = PubChem BioAssay (NCI)

- System: OVCAR-4 ovarian
- MEASUREMENT_NOTES: NCI tumour cell line growth inhibition, 48 h
READOUT_LABEL: TGI

COMPOUND	VALUE_REPORTED
O=C(O)c1ccc(NS(=O)(=O)Cc2ccccc2)cc1	> 100 µM
CC(C)/C(Cl)=N\OC(=O)NNc1ccccc1	> 100 µM
O=C1CC[C@H]2CNC(=O)C[C@H]2C1	> 100 µM
Cc1nc(Cl)c(CBr)c(Cl)n1	3.56 µM
COc1cc2c(c(OC)c1OC)-c1ccc(NCc3ccccc3)c(=O)cc1[C@@H](NC(C)=O)CC2	45.9 µM

Using the record for CCOc1ccc2nc(NC(=O)/C(CC(=O)CC(C3=C(O)c4ccccc4CC3=O)c3ccccc3)=N\O)sc2c1 (configuration not stated) , report its TGI.
> 100 µM

Using the record for CN1C(=O)CN(NC(=O)C2=C(O)c3ccc(Br)cc3S(=O)(=O)N2)C1=S , report its TGI.
> 100 µM

Using the record for Cc1cc(C)c2c(n1)S(=O)(=O)N(CCCN1CCN(c3cccc(C(F)(F)F)c3)CC1)/C(=C(\O)c1ccc(Cl)cc1)C2=O , report its TGI.
15.1 µM

Using the record for OCc1ccccc1C1CSCSC1 , report its TGI.
> 100 µM

Using the record for COc1cc2c(NCCCCCCO[N+](=O)[O-])ncnc2c(OC)c1OC , report its TGI.
> 100 µM

Using the record for COc1ccc(CN2CCCC(C(=O)c3ccc(C(F)(F)F)cc3)C2)c(O)c1 (configuration not stated) , report its TGI.
> 100 µM

---

log10(TGI): recorded values
- Tested on: KM12 colon
- MEASUREMENT_NOTES: NCI tumour cell line growth inhibition, 48 h
Recall that a logarithmic scale is used here: each number is log10 of TGI in µM.

In the examples that follow, each entry is paired with its recorded log10(TGI).
MOLECULE	log10(TGI)
OC(c1cccc(C(F)(F)F)c1)c1cnccc1NC1CCCCCC1 (stereo unspecified)	0.57
CCOC(=O)c1c(SCCN2CCCC2)n(-c2ccccc2)c(=S)n(-c2ccccc2)c1=O	1.47
CN(C)CCNC(=O)c1cccc2nc3c(Cl)cccc3nc12	1.48

Checklist item: log10(TGI) tested on KM12 colon, entry COc1ccc(CN2CCCC(C(=O)c3ccc(C(F)(F)F)cc3)C2)c(O)c1 (stereo unspecified) , value?
1.93

Checklist item: log10(TGI) tested on KM12 colon, entry CCC[C@H](C)[C@H]1NC(=O)[C@@H](NC(=O)[C@@H](CC(C)C)N(C)C(=O)C2CCCN2C(=O)[C@H](C)O)[C@@H](C)OC(=O)[C@H](CC(C)C)N(C)C(=O)[C@@H]2CCCN2C(=O)[C@H](CC(C)C)NC(=O)[C@@H](C)C(=O)[C@H](C(C)C)OC(=O)C[C@@H]1O (stereo partly specified) , value?
0.10

Checklist item: log10(TGI) tested on KM12 colon, entry Cc1nc2ccc([N+](=O)[O-])cc2c(=O)n1C(=S)Nc1cccc(Cl)c1 , value?
1.51

---

TGI: recorded values
- Tested on: MDA-MB-231 breast
- MEASUREMENT_NOTES: NCI tumour cell line growth inhibition, 48 h
Supply the numeric figure in µM, leaving out any unit text.

In the examples that follow, each entry is paired with its recorded TGI.
QUERY_SMILES	TARGET	READOUT_LABEL	VALUE_REPORTED
O=C1C(Br)=Cc2c(Cl)sc(Cl)c21	MDA-MB-231 breast	TGI	8.91
C/C(=N/NC(=S)Nc1cccc(C)c1)c1ccccn1	MDA-MB-231 breast	TGI	2.45
Fc1ccc(-c2nn(-c3ccccc3)cc2-c2nc3ccccc3o2)cc1	MDA-MB-231 breast	TGI	67.3

We now examine a further compound.
Using the record for C[C@@H]1C[C@H](O)[C@]2(O)O[C@@H]3C[C@@]4(C=O)[C@@H](CC=C5[C@@H]4CC[C@]4(C)[C@@H](C6=CC(=O)OC6)CC[C@]54O)C[C@H]3O[C@@H]2O1 , report its TGI.
2.65

---

- Tested on: NCI/ADR-RES ovarian
- MEASUREMENT_NOTES: NCI tumour cell line growth inhibition, 48 h
TGI: recorded values

COMPOUND	READOUT_LABEL	VALUE_REPORTED
CN(C)S(=O)(=O)Nc1ccccn1	TGI	> 100 µM

Using the record for CCOC(=O)C1C(=O)CC(O)(c2ccccc2)C(C(=O)OCC)C1c1ccc(OC)cc1 (centres undefined) , report its TGI.
> 55.9 µM

Using the record for Cc1ccc(C2=Nc3c(c(C)nn3-c3ccccc3)N=C(C(=O)O)C2)cc1 , report its TGI.
> 10 µM

Using the record for C=C1CC(OC)(C(O)C(=O)N[C@H]2OCO[C@H]3C2O[C@H](C[C@@H](COC)OC)C(C)(C)C3OC)O[C@H](C)[C@@H]1C (some centres undefined) , report its TGI.
< 0.00482 µM

Using the record for Brc1ccc2c3c1[C@@H]1O[C@@H]1c1cccc(c1-3)[C@@H]1O[C@H]21 , report its TGI.
45.4 µM

Using the record for O=C1CCC(NC(=O)c2ccccc2)C(=O)N1 (centres undefined) , report its TGI.
> 100 µM

Using the record for O=C1C(Br)=Cc2c(Cl)sc(Cl)c21 , report its TGI.
> 100 µM

Using the record for CC1=CC=CC(C)(C)CC1(O[Si](C)(C)C)C(F)(F)F (centres undefined) , report its TGI.
> 100 µM

Using the record for COC(=O)[C@@H](C)C[C@H](Cc1ccccc1)NC(=O)c1nc([C@@H](C[C@H](C(C)C)N(C)C(=O)[C@@H](NC(=O)[C@H]2CCCN2C)C(C)C)OC(C)=O)sc1C , report its TGI.
> 25 µM

---

- System: SNB-19 CNS
- MEASUREMENT_NOTES: NCI tumour cell line growth inhibition, 48 h; in the data active = GI50 below about 0.43 µM; inactive = the rest
Would you mind answering with one of these outcomes? active, inactive

# count of solved cases: 4
CC[n+]1ccc2c(c1)C(=O)c1nccc3c1c-2nc1ccccc13 active
ClCc1ccccc1CSc1ncnc2nc[nH]c12 inactive
NS(=O)(=O)c1ccc(-n2nc(-c3ccc(Br)cc3)ccc2=O)cc1 inactive
CC1=C2[C@@H](CC1)[C@]1(C)O[C@@](C(C)C)(C[C@H]1OC(=O)[C@H](C)O)[C@H]2OC(=O)/C=C/c1ccccc1 inactive

// next entry
Identify the outcome logged in this assay for the molecule shown: CNC(=O)c1cc(Oc2ccc3c(c2)sc2nc(-c4ccc(N)cc4)cn23)ccn1
active

---

TGI: recorded values
- System: HT29 colon
- MEASUREMENT_NOTES: NCI tumour cell line growth inhibition, 48 h
Supply the numeric figure in µM, leaving out any unit text.

QUERY_SMILES	UNIT_LABEL	TGI
COc1ccccc1NC(=O)c1ccc(/C=C/C(=O)c2nccn2C)cc1	µM	1.78

We now examine a further molecule.
Using the record for CC1=C[C@@H]2Cc3occc3C(C)(C)[C@@H]2CC1 , report its TGI.
30.3

---

- Test system: HCC-2998 colon
- MEASUREMENT_NOTES: NCI tumour cell line growth inhibition, 48 h
READOUT_LABEL: TGI

In the examples that follow, each entry is paired with its recorded TGI.
CNC(=O)c1cc(Oc2ccc3c(c2)sc2nc(-c4ccc(N)cc4)cn23)ccn1 > 50.5 µM
O=C1/C(=C/c2ccc(F)cc2)CNC/C1=C\c1ccc(F)cc1 1.74 µM
Cc1ccc(C(=O)Nc2ccc(CP(=O)(O)O)cc2)cc1NC(=O)c1cccc(NC(=O)Nc2cccc(C(=O)Nc3cc(C(=O)Nc4ccc(CP(=O)(O)O)cc4)ccc3C)c2)c1 > 100 µM
COc1ccc(/C=C(/C(=O)O)c2cc(OC)c(OC)c(OC)c2)cc1 > 100 µM
CCOP(=O)(OCC)/C(F)=C/c1ccccc1 > 100 µM
Cc1cc2cccc(Cl)c2nc1C(=O)c1ccccc1 > 100 µM
Cc1nc2ccc([N+](=O)[O-])cc2c(=O)n1C(=S)Nc1cccc(Cl)c1 26 µM
Cc1nc2nnc(C)n2c2c1C(=O)Nc1ccccc1N2 > 100 µM

Using the record for O=C(O)c1cc(S(=O)(=O)N=NC=C2c3ccccc3N(O)c3ccccc32)ccc1O , report its TGI.
37.9 µM

Using the record for CCOC(=O)CCCO , report its TGI.
> 100 µM

Using the record for O=C(O)c1ccc(NS(=O)(=O)Cc2ccccc2)cc1 , report its TGI.
> 100 µM

---

- System: KM12 colon
- MEASUREMENT_NOTES: NCI tumour cell line growth inhibition, 48 h
READOUT_LABEL: TGI

COMPOUND	READOUT_LABEL	VALUE_REPORTED
CC1=CC(=O)N(n2c(C)n[nH]c2=O)C1=O	TGI	> 100 µM

Using the record for CC(C)c1c(P(=O)(c2ccccc2)c2ccccc2)n(C)c2ccccc12 , report its TGI.
> 100 µM

Using the record for COc1cc2c(cc1OC)C1C=NC(C(=O)O)(C2)c2ccccc21 (stereo not drawn) , report its TGI.
> 100 µM
